# target_or_system: T1, HA-GCN4 hAPRIL (amino acid residues 105-250) (human, UniProt O75888 105-250)
# T1 construct: Bought (R&D Systems); also called HA-tagged GCN4 human APRIL; HA-GCN4-huAPRIL; not shown: N-terminal HA tag; GCN4 isoleucine zipper oligomerization domain
# T1 sequence: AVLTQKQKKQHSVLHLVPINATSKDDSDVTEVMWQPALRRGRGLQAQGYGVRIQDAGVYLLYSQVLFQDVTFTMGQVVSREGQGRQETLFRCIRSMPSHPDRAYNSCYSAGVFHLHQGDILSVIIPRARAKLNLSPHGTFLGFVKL
# measurement_description: blocking ELISA, 4-parameter fit; blocked: human APRIL binding to human BCMA-Fc
pIC50: −log10 of the molar value.
The label depends only on pIC50: rule met if it is at least 9, rule not met if it is smaller.

stdin: Given monoclonal antibody 3530 (antibody, mouse IgG2, V domains shown) VH: QVQLQQSGAELVRPGASVKLSCKASGYTFTDHEMHWVRQTPVHGLEWIGVIDPDTGDTTYNQKFKGKATLTADKSSSTAYMDLRSLTSEDSAVFYCTRWTGGDYWGHGTTLTVSS VL: DAVMTQTPLSLSVTIGQPASISCKSSQSLLYSDGKTYLNWFQQRPGQSPKRLMYQVSKLDPGIPDRFSGSGSETDFTLKISRVEAEDLGVYYCLQGTYYPYTFGSGTKLEIK , state whether its pIC50 is at least 9.
stdout: rule met

stdin: Moving on to 3934 (antibody, V domains shown, also called monoclonal antibody 3934) VH: QVQLQQSGPELVKPGASVKLSCKAAGYIFTDYTINWVKQSPGQGLEWIGWIYPGSGNRKYNDKFKGKATMTADKSSSTAYMQLSSLTSEDSAVYFCARESNYVGYYAMDYWGQGTSVTVSS VL: DVLMTQTPLSLPVSLGDQASISCRSSQSVVNSNGNTYLEWYLQKPGQSPNLLIYKVSNRFSGVPDRFSGSGSGTDFTLKISRVEAEDLGVYYCFQGSHVPWTFGGGTKLEIK
stdout: rule met

stdin: Moving on to monoclonal antibody 3732 (antibody, V domains shown, mouse-derived) VH: EIQLQQSGPELVKPGASVKVSCKASGYSFTDDNMYWVKQSHGKSLEWIGYIDPLNGGTGYNQKFKGKATLTVDKSSSTAFLHLNSLTSEDSAVYYCARRDNYATGTMDYWGQGTSVTVSS VL: DIVMTQSQKFMSTSVGDRVSITCKASKNVGTDVSWYQQKPGKSPKPLIYWASNRFTGVPDRFTGSGSGTDFTLTINNVQSEDLADYFCEQYSSYPLTFGAGTKLELK
stdout: rule met

stdin: Moving on to monoclonal antibody 2218 (antibody, mouse IgG2, V domains shown) VH: DVQLQESGPGLVKPSQSLSLTCSVTGYSITSGYYWNWIRQFPGNKLEWMGYISYDGYNNYNPSLKNRISITRDTSKNQFFLKLNSVTTEDTATYYCANYYDYEDWYFGVWGTGTTVTVSS VL: DIVLTQSPASLAMSLGKRATISCRASESVSIIGTNSIHWYQQKPGQPPKLLIYHASNLETGVPARFSGSGSRTDFTLTIDPVEEDDVAIYYCLQSRKIPYTFGGGTKLEIK
stdout: rule met

stdin: Moving on to monoclonal antibody 3631 (antibody, V domains shown, mouse-derived) VH: EIQLQQSGPELVKPGASVKVSCKASGYSFTDYNIYWVKQSHGKSLEWIGYIDPSNGGPGYNQKFRGKATLTVDKSSSTAFLHLNSLTSEDSAVYYCARRDNYGSGTMDYWGQGTSVTVSS VL: DIVMTQSQKFMSTSVGDRVSITCKASQNVGTDVSWYQQKPGKSPKPLIYWASNRFTGVPDRFIGSGSGTDFTLTISNVQSEDLADYFCEQYSIYPLTFGAGTKLELK
stdout: rule met

stdin: Moving on to monoclonal antibody 3833 (antibody, V domains shown, mouse-derived) VH: QVQLQQSGAELVRPGTSVKMSCKAAGYTFTNYWIGWVKQRPGHGLEWIGDIYPGGIGGGYTKYNEKFKGKATLTADTSSSTAYMQLGSLTSEDSAIYFCSRSETGRAMDYWGQGTSVTVSS VL: DIQMTQSPSSLSASLGGKVTITCKASQDINKYIAWYQHKPGKGPRLLIHYTSTLKPGIPSRFSGSGSGRDYSFSISDLEPEDIATYYCLQYDNLNTFGGGTKLEIK
stdout: rule not met
